# target_or_system: T1, BSA (UniProt P02769 25-607)
# T1 construct: also called bovine serum albumin
# T1 sequence (P02769 25-607 limits assumed): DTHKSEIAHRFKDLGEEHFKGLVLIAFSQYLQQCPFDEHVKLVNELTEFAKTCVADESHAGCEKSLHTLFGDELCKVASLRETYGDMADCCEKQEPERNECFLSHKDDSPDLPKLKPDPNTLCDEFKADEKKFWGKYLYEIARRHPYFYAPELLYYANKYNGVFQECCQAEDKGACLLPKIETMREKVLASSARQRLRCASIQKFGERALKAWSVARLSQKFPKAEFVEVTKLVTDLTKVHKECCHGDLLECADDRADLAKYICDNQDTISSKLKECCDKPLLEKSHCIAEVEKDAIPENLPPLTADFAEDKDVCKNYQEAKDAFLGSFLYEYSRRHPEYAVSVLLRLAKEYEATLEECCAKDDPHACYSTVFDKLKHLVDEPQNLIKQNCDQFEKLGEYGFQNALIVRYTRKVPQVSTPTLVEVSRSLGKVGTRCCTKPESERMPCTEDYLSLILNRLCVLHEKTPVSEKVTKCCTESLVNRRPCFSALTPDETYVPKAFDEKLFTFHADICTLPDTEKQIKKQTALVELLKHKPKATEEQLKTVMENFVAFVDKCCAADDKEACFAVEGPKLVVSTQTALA
# method_summary: phage ELISA on coated protein (FIG. 1)
Positions of bridges follow the written chain, without caps; N, C: chain ends. No end group written: not given here.
outcome_measure: binding result

stdin: I am curious: what binding result value has been reported for RSTLCWFEGYDNTFPCKYFR (peptide, not shown: large carriers, disulfide 5-16; also: displayed on phage gene III protein, Tested as a phage clone; also called G7-18 peptide-phage) [G7BP-5 peptide-phage clone] ?
stdout: no binding

stdin: Then FCAVCNEELYENCGGCSVGK (peptide, not shown: large carriers, disulfide 5-16; cysteine pairing not given here; also: displayed on phage gene III protein, Tested as a phage clone displaying the peptide on the gene III protein) [G7BP-6 peptide-phage clone] ?
stdout: no binding
